The values you see were collected from the supplement of paper PMC11061612.

Tested on: SW837 (Colorectal Carcinoma);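 note: after 72 h of two-drug dosing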
Assay: Bliss excess, mean over the matrix (fraction); higher = more synergy
quantity kind: Bliss excess
Hey, just send me the number, nothing else.

>  <molecule>
C[C@@H](Oc1cc(-c2cnn(C3CCNCC3)c2)cnc1N)c1c(Cl)ccc(F)c1Cl [Crizotinib] + Cn1cnc2c(F)c(Nc3ccc(Br)cc3Cl)c(C(=O)NOCCO)cc21 [Selumetinib] (first compound max 10 µM, 7x7, partner max 10 µM)

>  <quantity kind>
Bliss excess

>  <measured number>
-0.0422

$$$$
>  <molecule>
CN(CCO)CC[C@H](CSc1ccccc1)Nc1ccc(S(=O)(=O)NC(=O)c2ccc(N3CCC([C@@H](O)c4ccccc4-c4ccc(Cl)cc4)CC3)cc2)cc1S(=O)(=O)C(F)(F)F [AZD4320] + CS(=O)(=O)CCNCc1ccc(-c2ccc3ncnc(Nc4ccc(OCc5cccc(F)c5)c(Cl)c4)c3c2)o1 [Lapatinib] (first compound max 1 µM, 7x7, partner max 10 µM)

>  <quantity kind>
Bliss excess

>  <measured number>
0.0547

$$$$

Proceeding to the next molecule to report its Bliss excess.
// query Fill in the blank: the reported Bliss excess of CCN(CCO)CCCOc1ccc2c(Nc3cc(CC(=O)Nc4cccc(F)c4)[nH]n3)ncnc2c1 [AZD2811] + C[C@@H]1COCCN1C2=NC(=NC(=C2)C3(CC3)[S@](=N)(=O)C)C4=C5C=CNC5=NC=C4 [AZD6738] (first compound max 1 µM, 7x7, partner max 10 µM) is ____.
// result -0.0252
